Cited source for all entries: ChEMBL document CHEMBL1142148

Tested on: Bifidobacterium animalis
protocol: Antimicrobial activity against Bifidobacterium animalis ATCC 27536
Format: functional
quantity: MIC
Quick note: number first, unit second.

Look over these answered cases.
Cc1onc(-c2ccccc2Cl)c1C(=O)N[C@@H]1C(=O)N2[C@@H]1SC(C)(C)[C@@H]2C(=O)O = 3.9 µg/mL
CN(C)[C@@H]1C(O)=C(C(N)=O)C(=O)[C@@]2(O)C(O)=C3C(=O)c4c(O)cccc4[C@@](C)(O)[C@H]3C[C@@H]12.Cl [TETRACYCLINE HYDROCHLORIDE] = 3.9 µg/mL
NC[C@@H]1O[C@H](O[C@H]2[C@@H](O)[C@H](O[C@@H]3[C@@H](O)[C@H](N)C[C@H](N)[C@H]3O[C@H]3O[C@H](CN)[C@@H](O)[C@H](O)[C@H]3N)O[C@@H]2CO)[C@H](N)[C@@H](O)[C@@H]1O = 250 µg/mL

INPUT: Quote MIC reported for `CC1(C)S[C@@H]2[C@H](NC(=O)[C@H](N)c3ccccc3)C(=O)N2[C@H]1C(=O)O` please.
OUTPUT: 15.6 µg/mL

INPUT: Provide measured MIC value, entry: `NC[C@H]1O[C@H](O[C@H]2[C@H](O)[C@@H](O[C@H]3O[C@H](CO)[C@@H](O)[C@H](N)[C@H]3O)[C@H](N)C[C@@H]2N)[C@H](O)[C@@H](O)[C@@H]1O`
OUTPUT: 500 µg/mL
